The reader will find reported yeast fitness values listed item by item below.
B1: tRNA (parent)
chain: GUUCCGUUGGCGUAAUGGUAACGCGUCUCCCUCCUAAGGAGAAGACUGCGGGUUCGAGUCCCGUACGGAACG

- Variants of: B1
- Protocol notes: yeast fitness relative to wild type (ratio to wild type); higher = fitter; tRNA-Arg(CCU), competitive growth, 37 C, YPD
This sample holds only a part of the variants without activity.
Please respond with just the number, no unit label.

A45U A65C: 0.801
G9C A14U A21C C61A: 0.81
A42C G56A: 1.01
C49A C55U: 0.606
U54C C62U: 0.815
U19C G48C C66U: 0.712
C4A U64A: 0.815
G39A G58C A69U: 0.773

Incoming: Could you please provide reported yeast fitness for A14U A42U ? Thanks!
Outgoing: 0.652

Incoming: Give recorded yeast fitness. A40U A45U C49U
Outgoing: 0.63

Incoming: Quickly give me recorded yeast fitness for C4U C5G C29G C31G A37C
Outgoing: 0.627
